src = paper PMC9344964

assay: MTT cytotoxicity assay; assay type: cell-based; conditions: African green monkey, Vero E6 cells, read-out: cytotoxic concentration 50 (CC50)
Readings of CC50 at 24 h for the listed compounds
measuredEndpoint: CC50 at 24 h (µg/mL)

{"columns": ["structureSmilesString", "measurement"],
 "data": [
  ["Cc1ccc(C(=O)Nc2ncc([N+](=O)[O-])s2)cc1", 1470],
  ["CC(C)[C@H](NC(=O)OCc1ccccc1)C(=O)Nc1ncc([N+](=O)[O-])s1", 1200],
  ["O=C(Nc1ncc([N+](=O)[O-])s1)[C@@H]1CCCN1C(=O)OCc1ccccc1", 2800],
  ["O=C(N[C@@H](Cc1ccccc1)C(=O)Nc1ncc([N+](=O)[O-])s1)OCc1ccccc1", 2040],
  ["O=C(N[C@@H](Cc1c[nH]c2ccccc12)C(=O)Nc1ncc([N+](=O)[O-])s1)OCc1ccccc1", 1630],
  ["C[C@H](NC(=O)OCc1ccccc1)C(=O)Nc1ncc([N+](=O)[O-])s1", 2120],
  ["O=C(CNC(=O)OCc1ccccc1)Nc1ncc([N+](=O)[O-])s1", 1850]
]}
